- Test system: EMC-BAC-2
- Method: relative viability (nuclei count vs DMSO), 5 days (fraction); higher = more cells survive
- Condition Summary: first compound 4 µM
Sorting guide: entries reporting relative viability beneath 0.5 go in the label 1 pile, the rest go in the label 0 pile.

Some entries whose results are on file:
# Compound, Answer Label
records = [
    ("COc1cc(N2CCC(C(N)=O)CC2)ccc1Nc1nc(N)c(Cl)c(Nc2ccccc2S(=O)(=O)C(C)C)n1 [HG-5-88-01] + O=C(c1cc(Cc2n[nH]c(=O)c3ccccc23)ccc1F)N1CCN(C(=O)C2CC2)CC1 [Olaparib] (partner 8 µM)", "label 1"),
    ("Clc1ccc(Nc2nnc(Cc3ccncc3)c3ccccc23)cc1 [Vatalanib] + Nc1nc2[nH]cc(CCc3ccc(C(=O)N[C@@H](CCC(=O)O)C(=O)O)cc3)c2c(=O)[nH]1 [Pemetrexed] (partner 0.2 µM)", "label 1"),
    ("C[C@@H]1CN(CC(=O)Nc2ccc3c(c2)Cc2cccc(-c4cc(=O)cc(N5CCOCC5)o4)c2S3)C[C@H](C)O1 + Nc1ncn([C@H]2C[C@H](O)[C@@H](CO)O2)c(=O)n1 [Decitabine] (partner 2 µM)", "label 0"),
    ("C[C@@H]1CN(CC(=O)Nc2ccc3c(c2)Cc2cccc(-c4cc(=O)cc(N5CCOCC5)o4)c2S3)C[C@H](C)O1 + Cc1nc(NC(=O)N2CCC[C@H]2C(N)=O)sc1-c1ccnc(C(C)(C)C(F)(F)F)c1 [Alpelisib] (partner 2 µM)", "label 0"),
]

**Query** Hi there! Is relative viability for Clc1ccc(Nc2nnc(Cc3ccncc3)c3ccccc23)cc1 [Vatalanib] + O=C(CCCCCCC(=O)Nc1ccccc1)NO [Vorinostat] (partner 1 µM) below 0.5, do you know?
**Result** label 1

**Query** Try Clc1ccc(Nc2nnc(Cc3ccncc3)c3ccccc23)cc1 [Vatalanib] + Nc1ncn([C@H]2C[C@H](O)[C@@H](CO)O2)c(=O)n1 [Decitabine] (partner 2 µM) next.
**Result** label 0

**Query** Try COc1cc(N2CCC(C(N)=O)CC2)ccc1Nc1nc(N)c(Cl)c(Nc2ccccc2S(=O)(=O)C(C)C)n1 [HG-5-88-01] + CC(C)C[C@H](NC(=O)[C@H](Cc1ccccc1)NC(=O)c1cnccn1)B(O)O [Bortezomib] (partner 0.002 µM) next.
**Result** label 0

**Query** Try COc1cc(N2CCC(C(N)=O)CC2)ccc1Nc1nc(N)c(Cl)c(Nc2ccccc2S(=O)(=O)C(C)C)n1 [HG-5-88-01] + Nc1nc2[nH]cc(CCc3ccc(C(=O)N[C@@H](CCC(=O)O)C(=O)O)cc3)c2c(=O)[nH]1 [Pemetrexed] (partner 0.2 µM) next.
**Result** label 1

**Query** Try Clc1ccc(Nc2nnc(Cc3ccncc3)c3ccccc23)cc1 [Vatalanib] + COc1cc2c(Oc3ccc(NC(=O)C4(C(=O)Nc5ccc(F)cc5)CC4)cc3F)ccnc2cc1OCCCN1CCOCC1 [Foretinib] (partner 0.25 µM) next.
**Result** label 0
